system.under.test: hS1P5 (ProLink-tagged, PathHunter) (Homo sapiens, UniProt Q9H228)
Construct: gene S1PR5; ProLink-tagged receptor, PathHunter HEK293 cells
Sequence (Q9H228 whole entry): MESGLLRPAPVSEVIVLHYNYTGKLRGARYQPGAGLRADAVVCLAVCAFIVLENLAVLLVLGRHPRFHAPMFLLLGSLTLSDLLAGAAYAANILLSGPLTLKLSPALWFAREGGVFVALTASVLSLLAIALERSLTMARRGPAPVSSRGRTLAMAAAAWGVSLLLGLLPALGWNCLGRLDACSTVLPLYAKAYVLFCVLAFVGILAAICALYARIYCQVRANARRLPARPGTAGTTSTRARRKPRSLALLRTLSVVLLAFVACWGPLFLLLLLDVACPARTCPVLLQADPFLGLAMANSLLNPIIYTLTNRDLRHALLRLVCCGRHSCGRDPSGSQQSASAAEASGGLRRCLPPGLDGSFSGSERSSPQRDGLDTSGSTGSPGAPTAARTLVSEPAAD
experiment.notes: cell-based
Parameters: species or system PathHunter HEK293; PathHunter beta-arrestin recruitment, agonist concentration-response
protocol.conditions: HEK293, read-out: S1P5 β-Arrestin Emax, % of S1P
Entries and their Emax values follow.
experimental.readout: Emax (%)

> print(dat)
                                   compound  assay.result
1  O=C(O)C[C@H]1CCc2c1[nH]c1ccc(OCc3ccc(C4CCCC4)c(C(F)(F)F)c3)cc21          85.7
2  CCc1cc(/C(C)=N/OCc2ccc(C3CCCCC3)c(C(F)(F)F)c2)ccc1CN1CC(C(=O)O)C1           107
3  CCCCCCCCc1ccc(CCC(N)(CO)COP(=O)(O)O)cc1 (stereo not shown)          48.4
4  CC(C)Oc1ccc(-c2nc(-c3cccc4c3CCC4=O)no2)cc1C#N           115
